test: in vivo; assay type: in vivo, rat (Sprague Dawley); conditions: Sprague Dawley, in vivo; male SD rat, IV 1 mg/kg; read-out: IV t1/2 (converted)
Catalogue of half-life readings, one per entry.
readout: half-life (h)

>>> print(df.to_string())
                      smiles_representation  unit_descriptor  number
0  CCc1ccc(-c2nn3cccnc3c2C(=O)N[C@H]2N=C(c3ccccc3)c3cccc(F)c3NC2=O)cn1                h       2
1  Cc1ccc(-c2nn3cccnc3c2C(=O)N[C@H]2N=C(c3ccccc3)c3cccc(F)c3NC2=O)cn1                h     1.2
2  O=C(N[C@H]1N=C(c2ccccc2)c2cccc(F)c2NC1=O)c1c(-c2cncc(Cl)c2)nn2cccnc12                h     3.1
3  CCc1ccc(-c2nn3cccnc3c2C(=O)N[C@H]2N=C(c3ccccc3)c3cccc(F)c3NC2=O)c(C)n1                h     1.4
